Where do the numbers come from? From patent US12258327B2.

# Study system: EGFR del19/C797S (Homo sapiens, UniProt P00533, C797S/DEL746-750)
# Sequence (P00533 with tags, fused parts or gaps DEL746-750/C797S): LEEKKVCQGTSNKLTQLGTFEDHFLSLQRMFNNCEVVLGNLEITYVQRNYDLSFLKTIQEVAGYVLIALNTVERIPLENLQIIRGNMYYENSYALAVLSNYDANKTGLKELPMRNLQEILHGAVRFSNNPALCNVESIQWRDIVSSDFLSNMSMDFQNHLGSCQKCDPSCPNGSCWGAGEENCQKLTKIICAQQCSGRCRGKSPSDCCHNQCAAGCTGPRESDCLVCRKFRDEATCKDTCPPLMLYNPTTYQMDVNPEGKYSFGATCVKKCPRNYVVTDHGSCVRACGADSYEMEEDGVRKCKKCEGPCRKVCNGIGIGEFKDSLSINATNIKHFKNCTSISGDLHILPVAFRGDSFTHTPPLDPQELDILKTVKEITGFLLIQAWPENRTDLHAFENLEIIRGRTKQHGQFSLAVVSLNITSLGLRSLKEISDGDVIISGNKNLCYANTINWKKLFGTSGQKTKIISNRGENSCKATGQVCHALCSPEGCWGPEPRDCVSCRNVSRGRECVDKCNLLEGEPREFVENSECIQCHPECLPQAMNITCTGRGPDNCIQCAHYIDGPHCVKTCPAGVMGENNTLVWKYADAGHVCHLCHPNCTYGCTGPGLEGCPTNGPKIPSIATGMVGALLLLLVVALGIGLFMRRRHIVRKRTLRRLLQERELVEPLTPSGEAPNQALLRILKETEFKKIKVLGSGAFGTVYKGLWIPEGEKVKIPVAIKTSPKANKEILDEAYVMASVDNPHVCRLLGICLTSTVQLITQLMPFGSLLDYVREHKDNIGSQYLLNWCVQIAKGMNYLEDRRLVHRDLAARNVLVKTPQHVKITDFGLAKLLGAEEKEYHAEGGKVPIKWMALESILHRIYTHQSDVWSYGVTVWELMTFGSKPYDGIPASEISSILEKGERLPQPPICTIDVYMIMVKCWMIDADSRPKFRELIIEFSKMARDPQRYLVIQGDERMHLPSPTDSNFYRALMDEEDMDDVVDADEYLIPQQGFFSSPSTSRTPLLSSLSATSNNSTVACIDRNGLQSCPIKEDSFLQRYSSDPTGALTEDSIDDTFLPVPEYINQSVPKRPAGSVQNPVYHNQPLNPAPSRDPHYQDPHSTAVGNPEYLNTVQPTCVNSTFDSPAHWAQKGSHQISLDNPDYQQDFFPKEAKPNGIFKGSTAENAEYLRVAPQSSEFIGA
# Protocol text: Biochemical EGFR kinase assay (Lance Ultra TR-FRET), double mutant del19/C797S
# Cond: read-out: IC50 del19/C797S (nM) 100 μM ATP; 100 μM ATP
Metric name: IC50 (nM)
Form entry: value (nM) — number only.

## Input For the compound CN[C@H]1CC[C@@H](Nc2cc(Nc3ccnc(-c4cnn(S(=O)(=O)C5CC5)c4)n3)ncc2-c2ccn(C(C)C)n2)CC1 , give its reported IC50.
## Output 3.2

## Input Supply measured IC50 of CC(C)(O)[C@H]1CC[C@@H](Nc2cc(Nc3ccnc(-c4cnn(S(=O)(=O)C5CC5)c4)n3)ncc2-c2csc(C(F)(F)F)n2)CC1 in your reply.
## Output 200

## Input Quick one: give measured IC50 for O=S(=O)(C1CC1)n1cc(-c2nccc(Nc3cc(N[C@H]4CC[C@](O)(C(F)(F)F)CC4)c(-c4ccn(C(F)F)n4)cn3)n2)cn1
## Output 553

## Input Consider the compound CC(C)n1ccc(-c2cnc(Nc3ccnc(-c4cnn(S(=O)(=O)C5CC5)c4)n3)cc2N[C@H]2CC[C@@H](O)CC2)n1 and give its recorded IC50.
## Output 2.1

## Input Input CN(C)[C@H]1CC[C@H](CNc2cc(Nc3ccnc(-c4cnn(S(=O)(=O)C5CC5)c4)n3)ncc2-c2ccn(C(F)F)n2)CC1 , output reported IC50.
## Output 0.3

## Input Read off the recorded IC50 for O=S(=O)(C1CC1)n1cc(-c2nccc(Nc3cc(NC[C@H]4CC[C@H](NCC(F)F)CC4)c(-c4ccn(C(F)F)n4)cn3)n2)cn1
## Output 6.3

###

# Study system: EGFR del19/T790M/C797S (Homo sapiens, UniProt P00533, C797S/DEL746-750/T790M)
# Sequence (P00533 with tags, fused parts or gaps DEL746-750/T790M/C797S): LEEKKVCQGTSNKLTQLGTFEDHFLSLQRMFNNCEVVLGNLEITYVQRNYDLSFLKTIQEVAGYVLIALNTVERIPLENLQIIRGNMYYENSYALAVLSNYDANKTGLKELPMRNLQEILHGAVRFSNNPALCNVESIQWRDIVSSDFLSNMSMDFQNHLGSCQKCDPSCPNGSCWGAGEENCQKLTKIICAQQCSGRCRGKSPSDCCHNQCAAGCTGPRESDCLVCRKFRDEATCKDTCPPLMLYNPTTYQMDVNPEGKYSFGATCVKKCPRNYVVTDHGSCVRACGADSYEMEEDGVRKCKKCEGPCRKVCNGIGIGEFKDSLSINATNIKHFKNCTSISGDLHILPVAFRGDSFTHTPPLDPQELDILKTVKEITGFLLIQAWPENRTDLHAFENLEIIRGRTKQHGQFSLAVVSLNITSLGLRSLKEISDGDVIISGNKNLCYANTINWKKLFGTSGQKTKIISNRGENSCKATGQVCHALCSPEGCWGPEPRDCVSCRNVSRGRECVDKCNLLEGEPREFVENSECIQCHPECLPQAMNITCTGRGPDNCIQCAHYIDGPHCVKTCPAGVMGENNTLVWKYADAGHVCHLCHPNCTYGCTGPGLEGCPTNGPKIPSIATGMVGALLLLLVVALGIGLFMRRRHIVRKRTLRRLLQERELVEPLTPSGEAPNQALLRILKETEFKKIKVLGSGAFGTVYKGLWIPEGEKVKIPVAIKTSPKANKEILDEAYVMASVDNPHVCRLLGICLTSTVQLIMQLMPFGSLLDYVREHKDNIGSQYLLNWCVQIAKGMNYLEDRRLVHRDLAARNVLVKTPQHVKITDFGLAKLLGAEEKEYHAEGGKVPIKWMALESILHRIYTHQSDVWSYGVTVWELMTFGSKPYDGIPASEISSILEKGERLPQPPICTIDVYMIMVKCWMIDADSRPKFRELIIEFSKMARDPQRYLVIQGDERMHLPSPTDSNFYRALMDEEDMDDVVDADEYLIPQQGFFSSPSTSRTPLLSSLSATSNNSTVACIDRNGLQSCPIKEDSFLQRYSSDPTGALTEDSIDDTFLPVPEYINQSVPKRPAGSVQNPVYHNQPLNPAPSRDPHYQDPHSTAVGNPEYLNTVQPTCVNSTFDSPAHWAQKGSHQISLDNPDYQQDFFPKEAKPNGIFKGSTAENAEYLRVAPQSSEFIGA
# Protocol text: Biochemical EGFR kinase assay (Lance Ultra TR-FRET), triple mutant del19/T790M/C797S
# Cond: IC50 del19/T790M/C797S (nM) 100 μM ATP, 100 μM ATP
Metric name: IC50 (nM)
Hi! Could you send only the number? It should be in nM, unit omitted.

## Input Report value: IC50, system: EGFR del19/T790M/C797S (Homo sapiens, UniProt P00533, C797S/DEL746-750/T790M), molecule: O=S(=O)(C1CC1)n1cc(-c2nccc(Nc3cc(NC4CCC(CCO)CC4)c(-c4ccn(C(F)F)n4)cn3)n2)cn1 (stereo not drawn)
## Output 0.5

## Input Would you please give the reported IC50 of O=S(=O)(C1CC1)n1cc(-c2nccc(Nc3cc(N[C@H]4CC[C@](O)(CO)CC4)c(-c4ccn(C(F)F)n4)cn3)n2)cn1 with EGFR del19/T790M/C797S (Homo sapiens, UniProt P00533, C797S/DEL746-750/T790M)?
## Output 0.2

## Input Would you please give the reported IC50 of Cn1ccc(-c2cnc(Nc3ccnc(-c4cnn(S(=O)(=O)C5CC5)c4)n3)cc2NC2CCCC(NCC(F)F)C2)n1 (stereo not drawn) with EGFR del19/T790M/C797S (Homo sapiens, UniProt P00533, C797S/DEL746-750/T790M)?
## Output 0.7

###

Assignment: determine reported IC50 for the given compounds.
# Study system: EGFR L858R/T790M/C797S (Homo sapiens, UniProt P00533, C797S/L858R/T790M)
# Sequence (P00533 25-1210 T790M/C797S/L858R): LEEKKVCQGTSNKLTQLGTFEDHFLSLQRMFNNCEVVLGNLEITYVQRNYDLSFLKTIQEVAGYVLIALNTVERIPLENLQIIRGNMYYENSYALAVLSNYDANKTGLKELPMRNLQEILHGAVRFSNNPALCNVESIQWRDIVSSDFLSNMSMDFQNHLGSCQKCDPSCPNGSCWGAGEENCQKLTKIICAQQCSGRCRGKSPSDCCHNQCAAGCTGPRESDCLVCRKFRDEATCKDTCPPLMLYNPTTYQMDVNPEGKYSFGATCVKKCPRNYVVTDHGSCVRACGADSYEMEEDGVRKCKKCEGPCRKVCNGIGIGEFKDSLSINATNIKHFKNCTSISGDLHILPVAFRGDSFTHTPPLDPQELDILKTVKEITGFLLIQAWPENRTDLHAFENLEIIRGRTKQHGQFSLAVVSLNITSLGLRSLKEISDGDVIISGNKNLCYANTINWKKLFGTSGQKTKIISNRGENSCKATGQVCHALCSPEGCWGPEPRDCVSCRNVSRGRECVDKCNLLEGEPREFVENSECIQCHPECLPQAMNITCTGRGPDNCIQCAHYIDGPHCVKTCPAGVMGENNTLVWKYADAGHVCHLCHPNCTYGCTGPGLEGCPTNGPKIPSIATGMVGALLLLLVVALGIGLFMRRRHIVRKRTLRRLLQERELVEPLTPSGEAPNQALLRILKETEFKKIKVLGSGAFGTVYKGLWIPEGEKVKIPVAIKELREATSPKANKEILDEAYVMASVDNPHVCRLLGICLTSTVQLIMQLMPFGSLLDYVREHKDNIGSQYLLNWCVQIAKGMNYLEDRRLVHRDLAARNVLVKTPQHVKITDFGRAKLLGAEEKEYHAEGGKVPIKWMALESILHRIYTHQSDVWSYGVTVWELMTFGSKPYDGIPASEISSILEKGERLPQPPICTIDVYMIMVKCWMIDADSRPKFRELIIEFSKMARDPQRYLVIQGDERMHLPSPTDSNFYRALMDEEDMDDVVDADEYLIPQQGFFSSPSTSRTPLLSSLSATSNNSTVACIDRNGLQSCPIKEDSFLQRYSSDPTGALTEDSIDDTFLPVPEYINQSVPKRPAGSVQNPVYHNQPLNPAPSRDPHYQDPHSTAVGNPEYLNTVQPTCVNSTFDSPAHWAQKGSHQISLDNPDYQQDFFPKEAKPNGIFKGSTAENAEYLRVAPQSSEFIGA
# Protocol text: Biochemical EGFR kinase assay (Lance Ultra TR-FRET), triple mutant L858R/T790M/C797S
# Cond: Km ATP; read-out: IC50 L858R/T790M/C797S (nM) Km ATP
Give the value in nM but do not write nM after it.

## Input Let me know recorded IC50 for C[C@]1(O)CC[C@@H](Nc2cc(Nc3ccnc(-c4cnn(S(=O)(=O)C5CC5)c4)n3)ncc2-c2ccn(C3COC3)n2)CC1 [Example 292] , thanks.
## Output 0.1

## Input State its IC50 for this compound: O=S(=O)(C1CC1)n1cc(-c2nccc(Nc3cc(NCC4CCCC(O)C4)c(-c4ccn(C(F)F)n4)cn3)n2)cn1 (stereo not shown) [Example 32]
## Output 0.2

## Input For the compound C[C@]1(O)CC[C@@H](Nc2cc(Nc3nc(-c4cnn(S(=O)(=O)C5CC5)c4)ncc3F)ncc2-c2ccn(C(F)F)n2)CC1 [Example 316] , give its reported IC50.
## Output 0.2

## Input Supply measured IC50 of C[C@]1(O)CC[C@@H](Nc2cc(Nc3ccnc(-c4cnn(S(=O)(=O)C5CC5)c4)n3)ncc2-c2ccn(C3CC3)n2)CC1 [Example 290] in your reply.
## Output 0.1

## Input Output IC50 of CN(C)CCCn1ccc(-c2cnc(Nc3ccnc(-c4cnn(S(=O)(=O)C5CC5)c4)n3)cc2N[C@H]2CC[C@@H](CO)CC2)n1 [Example 296]
## Output 0.1

## Input In one line, give reported IC50 of the entry O=S(=O)(C1CC1)n1cc(-c2nccc(Nc3cc(N[C@H]4CC[C@@H](F)CC4)c(-c4nc(C(F)F)cs4)cn3)n2)cn1 [Example 164] .
## Output 4.8

## Input Entry C[C@]1(O)CC[C@@H](Nc2cc(Nc3ccnc(-c4cnn(S(=O)(=O)C5CC5)c4)n3)ncc2-c2cn3c(n2)CCC3)CC1 [Example 274] needs its IC50 filled in; supply it.
## Output 0.2

## Input Specify measured IC50 for O=S(=O)(C1CC1)n1cc(-c2nccc(Nc3cc(N[C@H]4CC[C@H](CCO)CC4)c(-c4ccn(CC(F)(F)F)n4)cn3)n2)cn1 [Example 270] .
## Output 0.7

## Input Please report IC50 for the following compound: O=S(=O)(C1CC1)n1cc(-c2nccc(Nc3cc(NC[C@H]4CC[C@@H](O)C4)c(-c4ccn(C(F)F)n4)cn3)n2)cn1 [Example 119]
## Output 0.1

## Input Give IC50 for the following compound: O=S(=O)(C1CC1)n1cc(-c2nccc(Nc3cc(NC4CCCC4O)c(-c4ccn(C(F)F)n4)cn3)n2)cn1 (stereo not shown) [Example 29]
## Output 1

## Input Input FC(F)Cn1cc(-c2nccc(Nc3cc(N[C@H]4CC[C@@H](F)CC4)c(-c4ccn(C(F)F)n4)cn3)n2)cn1 [Example 161] , output reported IC50.
## Output 2.4

## Input For the compound CN(C)C(=O)[C@H]1CC[C@@H](Nc2cc(Nc3ccnc(-c4cnn(S(=O)(=O)C5CC5)c4)n3)ncc2-c2ccn(C)n2)CC1 [Example 232] , report IC50.
## Output 0.3

## Input Please give the documented IC50 of CN(C)S(=O)(=O)n1cc(-c2nccc(Nc3cc(N[C@H]4CC[C@@](C)(O)CC4)c(-c4ccn(C(F)F)n4)cn3)n2)cn1 [Example 317]
## Output 0.1

###

# Study system: EGFR wildtype (WT) (Homo sapiens, UniProt P00533)
# Sequence (P00533 25-1210): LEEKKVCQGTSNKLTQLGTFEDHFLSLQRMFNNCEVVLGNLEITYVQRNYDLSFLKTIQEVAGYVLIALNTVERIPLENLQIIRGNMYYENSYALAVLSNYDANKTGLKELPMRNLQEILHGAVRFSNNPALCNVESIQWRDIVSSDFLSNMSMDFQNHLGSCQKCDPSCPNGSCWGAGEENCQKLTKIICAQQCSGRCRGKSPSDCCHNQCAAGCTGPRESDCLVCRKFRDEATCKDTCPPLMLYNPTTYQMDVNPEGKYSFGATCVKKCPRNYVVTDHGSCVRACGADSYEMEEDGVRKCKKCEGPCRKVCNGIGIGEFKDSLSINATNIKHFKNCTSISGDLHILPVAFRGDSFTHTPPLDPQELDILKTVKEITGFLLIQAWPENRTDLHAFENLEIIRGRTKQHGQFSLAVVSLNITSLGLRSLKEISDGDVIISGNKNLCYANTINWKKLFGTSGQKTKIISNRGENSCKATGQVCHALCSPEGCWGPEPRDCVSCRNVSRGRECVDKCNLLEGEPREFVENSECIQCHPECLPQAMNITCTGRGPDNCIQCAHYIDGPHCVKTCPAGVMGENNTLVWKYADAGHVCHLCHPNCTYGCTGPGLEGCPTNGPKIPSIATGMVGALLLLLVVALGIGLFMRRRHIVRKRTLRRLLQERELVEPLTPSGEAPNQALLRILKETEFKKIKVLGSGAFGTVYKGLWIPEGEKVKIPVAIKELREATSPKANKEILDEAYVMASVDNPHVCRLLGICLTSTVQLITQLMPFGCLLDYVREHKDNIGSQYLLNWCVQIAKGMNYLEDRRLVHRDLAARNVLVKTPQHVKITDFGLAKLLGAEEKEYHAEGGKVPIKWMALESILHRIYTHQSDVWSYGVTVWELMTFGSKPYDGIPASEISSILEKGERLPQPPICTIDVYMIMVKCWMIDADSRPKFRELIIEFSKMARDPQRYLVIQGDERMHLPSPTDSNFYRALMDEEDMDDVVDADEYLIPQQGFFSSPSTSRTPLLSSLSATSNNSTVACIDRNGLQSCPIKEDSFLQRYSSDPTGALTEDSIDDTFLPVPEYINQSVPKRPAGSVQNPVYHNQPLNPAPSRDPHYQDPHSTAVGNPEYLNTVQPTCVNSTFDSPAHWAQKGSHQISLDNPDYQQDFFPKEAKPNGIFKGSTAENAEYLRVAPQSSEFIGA
# Protocol text: Biochemical EGFR kinase assay (Lance Ultra TR-FRET), wildtype
# Cond: IC50 WT (nM) 100 μM ATP, 100 μM ATP
Metric name: IC50

## Input # assay system EGFR wildtype (WT) (Homo sapiens, UniProt P00533): give IC50 of O=C1CC[C@]2(CC[C@H](Nc3cc(Nc4ccnc(-c5cnn(S(=O)(=O)C6CC6)c5)n4)ncc3-c3ccn(C(F)F)n3)CC2)N1 [Example 19]
## Output > 10000 nM

## Input Lab note: record IC50 of Cn1ccc(-c2cnc(Nc3ccnc(-c4cnn(S(=O)(=O)C5CC5)c4)n3)cc2N[C@H]2CC[C@H](CCO)CC2)n1 [Example 134] tested on EGFR wildtype (WT) (Homo sapiens, UniProt P00533).
## Output > 10000 nM

## Input State IC50 (EGFR wildtype (WT) (Homo sapiens, UniProt P00533)) of C[C@]1(O)CC[C@@H](Nc2cc(Nc3ccnc(-c4cnn(CC(F)F)c4)n3)ncc2-c2ccn(C(F)F)n2)CC1 [Example 143] .
## Output > 10000 nM

## Input Would you please give the reported IC50 of CO[C@H]1CCN(c2nccc(Nc3cc(N[C@H]4CC[C@@](C)(O)CC4)c(-c4ccn(C(F)F)n4)cn3)n2)C[C@H]1F [Example 111] with EGFR wildtype (WT) (Homo sapiens, UniProt P00533)?
## Output > 10000 nM

## Input Report IC50 under test system EGFR wildtype (WT) (Homo sapiens, UniProt P00533) for O=S(=O)(C1CC1)n1cc(-c2nccc(Nc3cc(OC4CCC(OC(F)F)CC4)c(-c4cnn(C(F)F)c4)cn3)n2)cn1 (stereo not shown) [Example 70] .
## Output > 10000 nM

## Input Write down measured IC50 (EGFR wildtype (WT) (Homo sapiens, UniProt P00533)) for this compound. O=S(=O)(C1CC1)n1cc(-c2nccc(Nc3cc(N[C@H]4CC[C@@H](NCC(F)F)CC4)c(-c4cc5n(n4)CCCC5)cn3)n2)cn1 [Example 63]
## Output > 10000 nM

## Input Return reported IC50 for target or system EGFR wildtype (WT) (Homo sapiens, UniProt P00533), item CNC(=O)[C@H]1CC[C@@H](Nc2cc(Nc3ccnc(-c4cnn(S(=O)(=O)C5CC5)c4)n3)ncc2-c2ccn(C(F)F)n2)CC1 [Example 24] .
## Output > 10000 nM

## Input Recall the reported IC50 of O=S(=O)(C1CC1)n1cc(-c2nccc(Nc3cc(NC4CC5CC(O)C4C5)c(-c4ccn(C(F)F)n4)cn3)n2)cn1 (stereo not shown) [Example 39] when tested on EGFR wildtype (WT) (Homo sapiens, UniProt P00533).
## Output > 10000 nM

## Input Name the value of IC50 reported for O=S(=O)(C1CC1)n1cc(-c2nccc(Nc3cc(NCC4CC5(CNC5)C4)c(-c4ccn(C(F)F)n4)cn3)n2)cn1 [Example 26] when tested on EGFR wildtype (WT) (Homo sapiens, UniProt P00533).
## Output 3740 nM

## Input Lab note: record IC50 of Cn1ccc(-c2cnc(Nc3ccnc(-c4cnn(S(=O)(=O)C5CC5)c4)n3)cc2NC2CCCC(NCC(F)F)C2)n1 (stereo not shown) [Example 224] tested on EGFR wildtype (WT) (Homo sapiens, UniProt P00533).
## Output > 10000 nM

## Input Recall the reported IC50 of CN(C)CCCn1ccc(-c2cnc(Nc3ccnc(-c4cnn(S(=O)(=O)C5CC5)c4)n3)cc2N[C@H]2CC[C@@H](C(C)(C)O)CC2)n1 [Example 278] when tested on EGFR wildtype (WT) (Homo sapiens, UniProt P00533).
## Output 669 nM

## Input For EGFR wildtype (WT) (Homo sapiens, UniProt P00533), give IC50 of the listed compound: CC1(O)CCC(Oc2cc(Nc3ccnc(-c4cnn(S(=O)(=O)C5CC5)c4)n3)ncc2-c2cnn(C(F)F)c2)CC1 (stereo not shown) [Example 73]
## Output > 10000 nM

## Input Look up and report measured IC50 (EGFR wildtype (WT) (Homo sapiens, UniProt P00533)) for the following compound: O=S(=O)(C1CC1)n1cc(-c2nccc(Nc3cc(N[C@H]4CCC[C@H](O)C4)c(-c4ccn(C(F)F)n4)cn3)n2)cn1 [Example 21]
## Output 5010 nM

## Input Provide IC50, system EGFR wildtype (WT) (Homo sapiens, UniProt P00533), entry CC(C)(O)[C@H]1CC[C@@H](Nc2cc(Nc3ccnc(-c4cnn(S(=O)(=O)C5CC5)c4)n3)ncc2-c2ccn(C3COC3)n2)CC1 [Example 283]
## Output 2000 nM

## Input Report IC50 under test system EGFR wildtype (WT) (Homo sapiens, UniProt P00533) for CNC[C@H]1CC[C@H](CNc2cc(Nc3ccnc(-c4cnn(S(=O)(=O)C5CC5)c4)n3)ncc2-c2ccn(C(F)F)n2)CC1 [Example 192] .
## Output 384 nM

## Input // fetch IC50 for CC(C)(O)[C@H]1CC[C@@H](Nc2cc(Nc3ccnc(-c4cnn(S(=O)(=O)C5CC5)c4)n3)ncc2-c2cc3n(n2)CCCC3)CC1 [Example 61] ; system: EGFR wildtype (WT) (Homo sapiens, UniProt P00533)
## Output 2900 nM

## Input Report value: IC50, system: EGFR wildtype (WT) (Homo sapiens, UniProt P00533), compound: CC(C)(O)[C@H]1CC[C@@H](Nc2cc(Nc3ccnc(-c4cnn(S(=O)(=O)C5CC5)c4)n3)ncc2-c2ccn(C(F)F)n2)CC1 [Example 8]
## Output > 10000 nM

## Input Param request: IC50 | system EGFR wildtype (WT) (Homo sapiens, UniProt P00533) | item CC(C)(O)[C@H]1CC[C@@H](Nc2cc(Nc3ccnc(-c4cnn(S(=O)(=O)C5CC5)c4)n3)ncc2-c2ccn(CC(F)(F)F)n2)CC1 [Example 265]
## Output > 10000 nM

## Input Print EGFR wildtype (WT) (Homo sapiens, UniProt P00533) IC50 for CCS(=O)(=O)n1cc(-c2nccc(Nc3cc(N[C@H]4CC[C@@](C)(O)CC4)c(-c4ccn(C(F)F)n4)cn3)n2)cn1 [Example 308] .
## Output 3640 nM

## Input Report the value of IC50 obtained on EGFR wildtype (WT) (Homo sapiens, UniProt P00533) for O=S(=O)(C1CC1)n1cc(-c2nccc(Nc3cc(N[C@H]4CC[C@@H](CN5CCC5)CC4)c(-c4ccn(CC(F)(F)F)n4)cn3)n2)cn1 [Example 272] .
## Output 325 nM

## Input State the measured IC50 (EGFR wildtype (WT) (Homo sapiens, UniProt P00533)) of C[C@]1(O)CCCN(c2cc(Nc3ccnc(-c4cnn(S(=O)(=O)C5CC5)c4)n3)ncc2-c2ccn(C(F)F)n2)C1 [Example 107]
## Output > 10000 nM

## Input Give measured IC50 for CN(CC(F)F)C[C@H]1CC[C@@H](Nc2cc(Nc3ccnc(-c4cnn(S(=O)(=O)C5CC5)c4)n3)ncc2-c2ccn(CC(F)F)n2)CC1 [Example 245] (EGFR wildtype (WT) (Homo sapiens, UniProt P00533)).
## Output > 10000 nM

## Input Please report IC50 with EGFR wildtype (WT) (Homo sapiens, UniProt P00533) for item CC(C)Nc1cc(Nc2ccnc(-c3cnn(S(=O)(=O)C4CC4)c3)n2)ncc1-c1csc(C(C)(C)O)n1 [Example 92] .
## Output > 10000 nM

## Input Report the value of IC50 obtained on EGFR wildtype (WT) (Homo sapiens, UniProt P00533) for O=S(=O)(C1CC1)n1cc(-c2nccc(Nc3cc(N[C@H]4CC[C@@H](CN5CCC5)CC4)c(-c4ccn(CC(F)F)n4)cn3)n2)cn1 [Example 247] .
## Output 150 nM

## Input Tell me its IC50 on EGFR wildtype (WT) (Homo sapiens, UniProt P00533): CN[C@H]1CC[C@@H](Nc2cc(Nc3ccnc(-c4cnn(S(=O)(=O)C5CC5)c4)n3)ncc2-c2csc(C(C)(C)O)n2)CC1 [Example 56]
## Output > 10000 nM
